// values below are reported IC50
TARGET OR SYSTEM: rat mGlu 5a receptor (Rattus norvegicus)
Sequence (P31424 21-1171 isoform P31424-2 limits assumed): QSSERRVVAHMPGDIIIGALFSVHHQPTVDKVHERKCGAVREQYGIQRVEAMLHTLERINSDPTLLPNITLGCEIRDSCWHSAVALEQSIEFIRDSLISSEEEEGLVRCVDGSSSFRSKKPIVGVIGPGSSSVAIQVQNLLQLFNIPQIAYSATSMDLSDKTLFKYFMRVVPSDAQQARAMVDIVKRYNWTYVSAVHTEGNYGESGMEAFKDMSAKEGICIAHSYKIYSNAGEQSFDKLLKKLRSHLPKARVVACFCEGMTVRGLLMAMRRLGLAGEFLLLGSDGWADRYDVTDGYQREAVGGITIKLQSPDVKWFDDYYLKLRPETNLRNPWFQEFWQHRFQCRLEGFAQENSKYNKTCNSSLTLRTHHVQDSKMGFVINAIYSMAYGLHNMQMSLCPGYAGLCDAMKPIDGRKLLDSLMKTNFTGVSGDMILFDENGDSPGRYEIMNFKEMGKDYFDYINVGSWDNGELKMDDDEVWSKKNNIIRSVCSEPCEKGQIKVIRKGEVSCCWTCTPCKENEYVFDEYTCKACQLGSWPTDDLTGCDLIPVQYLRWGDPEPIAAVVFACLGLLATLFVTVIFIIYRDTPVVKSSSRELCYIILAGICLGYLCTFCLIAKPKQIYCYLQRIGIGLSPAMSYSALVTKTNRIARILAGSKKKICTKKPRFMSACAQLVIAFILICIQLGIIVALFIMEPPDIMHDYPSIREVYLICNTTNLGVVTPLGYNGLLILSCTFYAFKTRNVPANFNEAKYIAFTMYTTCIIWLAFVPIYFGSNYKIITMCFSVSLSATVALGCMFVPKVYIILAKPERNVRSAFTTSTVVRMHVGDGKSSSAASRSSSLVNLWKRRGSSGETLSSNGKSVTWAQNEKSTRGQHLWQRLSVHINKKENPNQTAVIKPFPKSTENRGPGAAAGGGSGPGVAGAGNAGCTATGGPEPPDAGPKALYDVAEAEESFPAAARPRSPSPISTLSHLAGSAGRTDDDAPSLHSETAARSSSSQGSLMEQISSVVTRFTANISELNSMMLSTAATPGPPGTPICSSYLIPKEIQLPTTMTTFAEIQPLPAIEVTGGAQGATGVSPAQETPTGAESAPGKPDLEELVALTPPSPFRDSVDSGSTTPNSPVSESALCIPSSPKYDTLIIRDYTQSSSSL
METHOD NOTES: [Ca2+]i measurement (FLIPR) on mGlu 5a transfected EBNA cells, antagonist mode
STUDY CONDITIONS: rat mGlu 5a transiently transfected EBNA cells; Fluo 3-AM; tested against 10 μM glutamate as agonist
Give your result in nM as a bare value.

{"CHEMICAL SMILES": "Nc1nc(SCC(=O)OCC2CC2)ncc1Cc1ccccc1", "RECORDED ENDPOINT": "IC50", "ENDPOINT VALUE": 200}
{"CHEMICAL SMILES": "CCOC(=O)CSc1ncc(Cc2ccsc2)c(N)n1", "RECORDED ENDPOINT": "IC50", "ENDPOINT VALUE": 180}
{"CHEMICAL SMILES": "CCOC(=O)CSc1ncc(Cc2ccc(Br)cc2)c(N)n1", "RECORDED ENDPOINT": "IC50", "ENDPOINT VALUE": 180}
{"CHEMICAL SMILES": "C=CCSc1ncc(Cc2cccs2)c(N)n1", "RECORDED ENDPOINT": "IC50", "ENDPOINT VALUE": 2790}

Could you now consider this next compound?
I have this compound here, CCOC(=O)CSc1ncc(-c2ccc(Cl)cc2Cl)c(N)n1 , and I need its recorded IC50.
3850
